Molecular target: ZNF217 (UniProt O75362)
Sequence (O75362 whole entry, looked up): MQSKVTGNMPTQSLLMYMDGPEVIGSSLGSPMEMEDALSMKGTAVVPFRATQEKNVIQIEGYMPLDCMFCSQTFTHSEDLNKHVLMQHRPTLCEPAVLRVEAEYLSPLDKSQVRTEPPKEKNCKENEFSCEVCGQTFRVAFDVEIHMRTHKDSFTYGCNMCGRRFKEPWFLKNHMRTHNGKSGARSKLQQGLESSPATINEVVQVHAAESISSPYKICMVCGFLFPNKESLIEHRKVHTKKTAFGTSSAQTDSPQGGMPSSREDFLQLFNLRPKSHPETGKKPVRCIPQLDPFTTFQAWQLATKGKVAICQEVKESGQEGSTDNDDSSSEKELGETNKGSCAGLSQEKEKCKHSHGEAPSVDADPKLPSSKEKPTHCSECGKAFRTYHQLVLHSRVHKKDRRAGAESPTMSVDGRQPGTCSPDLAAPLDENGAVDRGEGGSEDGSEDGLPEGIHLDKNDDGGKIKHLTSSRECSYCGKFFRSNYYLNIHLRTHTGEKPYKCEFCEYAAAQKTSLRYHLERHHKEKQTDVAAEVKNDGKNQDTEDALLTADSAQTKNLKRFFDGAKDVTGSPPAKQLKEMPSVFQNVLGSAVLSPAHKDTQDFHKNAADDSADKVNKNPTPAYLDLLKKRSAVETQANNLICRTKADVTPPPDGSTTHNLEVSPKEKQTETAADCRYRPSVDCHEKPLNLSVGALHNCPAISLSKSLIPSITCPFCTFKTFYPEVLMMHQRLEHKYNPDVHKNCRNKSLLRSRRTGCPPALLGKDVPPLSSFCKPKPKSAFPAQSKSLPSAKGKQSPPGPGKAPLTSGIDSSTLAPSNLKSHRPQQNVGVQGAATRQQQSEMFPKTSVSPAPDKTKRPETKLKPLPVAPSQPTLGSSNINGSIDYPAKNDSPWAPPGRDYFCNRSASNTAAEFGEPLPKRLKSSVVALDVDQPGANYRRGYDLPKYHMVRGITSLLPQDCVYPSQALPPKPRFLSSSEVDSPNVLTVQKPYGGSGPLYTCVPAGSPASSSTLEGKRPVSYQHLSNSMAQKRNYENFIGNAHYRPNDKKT
Assay: log2 fold change, soluble protein after heating vs DMSO (PISA); higher = thermal stabilisation; K562 cells, 10 uM, 30 min; active = over 0.2 and 3.5 SD of the protein, either way, in both replicates (recomputed)
Of roughly 7,900 targets only a part is listed; those with a hit were picked by preference. About 0.6% of all pairs of compound and target were hits.
Classify by measured log2 fold change: Satisfied if it is equal to or exceeds -0.03, Not satisfied if it is smaller.

Worked examples follow.
• CN1CCC(CNc2ccc3ncc(-c4cccc(OC(F)(F)F)c4)n3n2)CC1 = Not satisfied
• CNC(=O)c1ccc(Nc2ncc(C(F)(F)F)c(NCc3nccnc3N(C)S(C)(=O)=O)n2)cc1 = Not satisfied
• CC(C)(O)CC(=O)NCCn1ccc2ncnc(Nc3ccc(Oc4cccc(C(F)(F)F)c4)c(Cl)c3)c21 = Not satisfied
• Cc1nc(Nc2n[nH]c3c2CN(C(=O)N[C@H](CN(C)C)c2ccccc2)C3(C)C)c2sccc2n1 = Not satisfied
• Cc1cccc(CC(=O)N2CCc3c2ccc(-c2cn(C)c4ncnc(N)c24)c3F)n1 = Satisfied
• CCCS(=O)(=O)Nc1ccc(F)c(C(=O)c2c[nH]c3ncc(-c4ccc(Cl)cc4)cc23)c1F = Satisfied
• CCN(CCCOc1ccc2c(Nc3cc(CC(=O)Nc4cccc(F)c4)[nH]n3)ncnc2c1)CCOP(=O)(O)O = Satisfied
• CNC(=O)c1ccccc1Nc1nc(Nc2ccc(N3CCOCC3)cc2OC)ncc1Cl = Satisfied

From here, focus on the item given below.
Identify whether the reported log2 fold change of the following compound is -0.03 or greater: CNCc1ccc(-c2[nH]c3cc(F)cc4c3c2CCNC4=O)cc1
Satisfied

----------
Molecular target: YAE1 (UniProt Q9NRH1)
Sequence (Q9NRH1 whole entry, looked up): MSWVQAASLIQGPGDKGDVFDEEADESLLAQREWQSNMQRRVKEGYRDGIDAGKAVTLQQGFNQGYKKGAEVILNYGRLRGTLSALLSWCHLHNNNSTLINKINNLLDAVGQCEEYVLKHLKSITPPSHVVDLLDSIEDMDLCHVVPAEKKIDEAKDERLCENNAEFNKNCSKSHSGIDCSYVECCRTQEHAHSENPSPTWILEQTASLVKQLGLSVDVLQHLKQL
Test: log2 fold change, soluble protein after heating vs DMSO (PISA); higher = thermal stabilisation; K562 cells, 10 uM, 30 min; active = over 0.2 and 3.5 SD of the protein, either way, in both replicates (recomputed)
The full data set covers some 7,900 targets. This sample favours those with a hit. About 0.6% of all pairs of compound and target were hits.
Classify by measured log2 fold change: true if it is equal to or exceeds 0.06, false if it is smaller.

- C[C@@H](N)c1ccc(C(=O)Nc2ccnc3[nH]ccc23)cc1: true
- Cc1cc(Nc2cc(N3CCN(C)CC3)nc(Sc3ccc(NC(=O)C4CC4)cc3)n2)n[nH]1 [tozasertib]: false
- CCCS(=O)(=O)Nc1ccc(F)c(C(=O)c2c[nH]c3ncc(Cl)cc23)c1F: false

Identify whether the reported log2 fold change of the following molecule is 0.06 or greater: CCCCN(Cc1ccc(C(=O)NO)cc1)C(=O)Nc1ccccc1 [Nexturastat A]
true

Identify whether the reported log2 fold change of the following molecule is 0.06 or greater: NC(=O)c1ccc2nc(-c3ccc(Oc4ccc(Cl)cc4)cc3)[nH]c2c1
false

Identify whether the reported log2 fold change of the following molecule is 0.06 or greater: O=C1NC(=O)/C(=C\c2ccc3nccnc3c2)S1
false

Identify whether the reported log2 fold change of the following molecule is 0.06 or greater: Cc1ccc(NC(=O)c2cccc(C(C)(C)C#N)c2)cc1Nc1ccc2ncn(C)c(=O)c2c1
false

Identify whether the reported log2 fold change of the following molecule is 0.06 or greater: CO[C@H]1C[C@@H]2CC[C@@H](C)[C@@](O)(O2)C(=O)C(=O)N2CCCC[C@H]2C(=O)O[C@H]([C@H](C)C[C@@H]2CC[C@H](n3cnnn3)[C@H](OC)C2)CC(=O)[C@H](C)/C=C(\C)[C@@H](O)[C@@H](OC)C(=O)[C@H](C)C[C@H](C)/C=C/C=C/C=C/1C [zotarolimus]
false

Identify whether the reported log2 fold change of the following molecule is 0.06 or greater: Cc1nc(Nc2ncc(C(=O)Nc3c(C)cccc3Cl)s2)cc(N2CCN(CCO)CC2)n1 [dasatinib]
true

Identify whether the reported log2 fold change of the following molecule is 0.06 or greater: CNC(=O)c1ccccc1Nc1nc(Nc2ccc(N3CCOCC3)cc2OC)ncc1Cl
false

meta.source: the supplement of paper PMC10849652
